experiment: photoluminescence quantum yield (fraction); solvent given as SMILES; settings: in Cc1ccccc1
measure name: photoluminescence quantum yield
Quick one: just the number, no unit, thanks!

{"smiles structure": "CCOC(=O)C(C(=O)OCC)C1=[N+]2C(=C(c3ccc(C)cc3)c3ccc(Cl)n3[B-]2(F)F)C=C1", "photoluminescence quantum yield": 0.79}
{"smiles structure": "COc1cc2c3c4c(c5ccc(C(C)(C)C)cc5c5c(OC)cc(OC)c(c2c(OC)c1OC)c45)=[N+]1C3=Nc2c3c4cc(OC)c(OC)c(OC)c4c4c(OC)cc(OC)c5c6cc(C(C)(C)C)ccc6c(c3c54)n2[B-]1(F)F", "photoluminescence quantum yield": 0.13}
{"smiles structure": "CC1(C)c2cc(/C=C/c3nc(/C=C/c4ccc5c(c4)C(C)(C)c4cc(N(c6ccccc6)c6ccc7ccccc7c6)ccc4-5)nc(/C=C/c4ccc5c(c4)C(C)(C)c4cc(N(c6ccccc6)c6ccc7ccccc7c6)ccc4-5)n3)ccc2-c2ccc(N(c3ccccc3)c3ccc4ccccc4c3)cc21", "photoluminescence quantum yield": 0.25}
{"smiles structure": "CN(C)c1ccc(C2=[N+]3C(=Nc4c(-c5ccc(O)cc5)cc(-c5ccc(N(C)C)cc5)n4[B-]3(F)F)C(c3ccc(O)cc3)=C2)cc1", "photoluminescence quantum yield": 0.1}

State, in one line, measured photoluminescence quantum yield of CC(C)[Si](C#Cc1c2ccccc2c(C#Cc2c3ccccc3c(C#Cc3c4ccccc4c(C#Cc4c5ccccc5c(C#Cc5c6ccccc6c(C#C[Si](C(C)C)(C(C)C)C(C)C)c6ccccc56)c5ccccc45)c4ccccc34)c3ccccc23)c2ccccc12)(C(C)C)C(C)C
0.018

State, in one line, measured photoluminescence quantum yield of COc1c2ccccc2c(OC)c2c(C#CC(C)(C)C)c3cc4ccccc4cc3c(C#CC(C)(C)C)c12
0.1

----------
Overview of reported photoluminescence quantum yield across a group of compounds:
assay: photoluminescence quantum yield (fraction); solvent given as SMILES; settings: in c1cc(-c2cccc(-n3c4ccccc4c4ccccc43)c2)cc(-n2c3ccccc3c3ccccc32)c1
Quick one: just the number, no unit, thanks!

{"smiles structure": "N#Cc1nc(-c2ccc(N3c4ccccc4Oc4ccccc43)cc2)c(-c2ccc(N3c4ccccc4Oc4ccccc43)cc2)nc1C#N", "measure name": "photoluminescence quantum yield", "recorded measurement": 0.15}

Query compound follows.
State, in one line, measured photoluminescence quantum yield of O=C1c2ccccc2S(=O)(=O)c2ccc(-n3c4ccccc4c4ccccc43)cc21
0.296

----------
assay: photoluminescence quantum yield (fraction); solvent given as SMILES; settings: in c1ccccc1
Overview of reported photoluminescence quantum yield across a group of molecules:
Quick one: just the number, no unit, thanks!

Guide cases for photoluminescence quantum yield, answers given:
{"molecule": "CC(C)(C)C1Nc2ccccc2C(=O)N1Cc1ccccc1 (stereo not given)", "photoluminescence quantum yield": 0.08}
{"molecule": "Nc1ccc2c(c1)C(=O)c1ccccc1-2", "photoluminescence quantum yield": 0.00099}
{"molecule": "Cc1c(OCC(=O)O)cc2c3c([nH]c2c1C)C(=O)CCC3", "photoluminescence quantum yield": 0.008}
{"molecule": "O=c1c2ccccc2sc2ccccc12", "photoluminescence quantum yield": 0.012}
{"molecule": "Cc1cc(C)c(B(c2c(C)cc(C)cc2C)c2cc3ccc4ccccc4c3c3c2ccc2ccccc23)c(C)c1", "photoluminescence quantum yield": 0.89}

State, in one line, measured photoluminescence quantum yield of CC1(C)Cc2c(c3ccccc3c3nc4c(nc23)c2c(c3ccccc34)OC(C)(C)C2)O1
0.39

State, in one line, measured photoluminescence quantum yield of CCOC(=O)c1sc2nc3c(c(C#N)c2c1N)CCCC3
0.046

State, in one line, measured photoluminescence quantum yield of O=C(O)COc1ccc2[nH]c3c(c2c1)CCCC3=O
0.006

State, in one line, measured photoluminescence quantum yield of O=c1oc2ccc3ccccc3c2nc1-c1ccc(Cl)cc1
0.478

State, in one line, measured photoluminescence quantum yield of CC1(C)Cc2c(c3ccccc3c3nc4c5c(c6ccccc6c4nc23)OC(C)(C)C5)O1
0.52
